Values were extracted from the supplement of paper PMC10567573.

B1: ZNF24 (parent)
chain: THTKEQILELVVLEQFVAILPKEL

Variants of: B1
measurement-notes: protein stability index of a GFP-peptide fusion (GPS, HEK-293T) (PSI 1-6); higher = more stable;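 further: lentivirally expressed fusions sorted by FACS into six bins by GFP to DsRed ratio, PSI derived from sequencing read proportions per bin multiplied by bin number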
recorded-conditions: c terminus: a fixed tail appended
Rule: protein stability index under 2 gives FALSE, otherwise TRUE.

Given the entry "K22H" , answer whether its protein stability index meets or surpasses 2.
TRUE

How about "H2C" ?
TRUE

Now consider "V17F" .
TRUE

Also "A18V" , if possible.
TRUE

Now the variant "H2E"
TRUE

Another variant to look at: "I19K"
TRUE

Proceed to "Q15C"
FALSE

// repeat for "E23P" and report
TRUE
